target: HDAC1 (Homo sapiens); construct: purchased Enzo Life Sciences; experiment: HDAC Inhibition Screening Assay (FLUOR DE LYS Fluorimetric Drug Discovery Kit), HDAC1; assay type: biochemical; settings: 10 μM compound
quantityKind: inhibition at 10 µM

> print(dat)
                                   molecule  result
1  Cc1[nH]c2ccccc2c1CCNC1CCCc2cc(/C=C/C(=O)Nc3ccc(F)cc3N)ccc21 (centres unmarked)   > 80%
2  O=C(/C=C/c1ccc2c(c1)CCC2NCCC(=O)Nc1cc(C(F)(F)F)cc(C(F)(F)F)c1)NO (centres unmarked)   > 80%
3  Cc1[nH]c2ccccc2c1CCNC1CCc2cc(/C=C/C(=O)NO)ccc21 (centres unmarked)   > 80%

Q: Which inhibition at 10 µM reading was recorded for the molecule Nc1cc(F)ccc1NC(=O)CCCCCCC(=O)Nc1ccc2c(c1)CCC(Cc1cc(C(F)(F)F)cc(C(F)(F)F)c1)C2=O (centres unmarked) ?
Ans: < 50%

Q: # lookup: inhibition at 10 µM of Nc1cc(F)ccc1NC(=O)/C=C/c1ccc2c(c1)CCCC2OCc1cc(C(F)(F)F)cc(C(F)(F)F)c1 (centres unmarked)
Ans: < 50%

Q: For the molecule Cc1ccc(S(=O)(=O)NC2CCc3cc(/C=C/C(=O)NO)ccc32)cc1 (centres unmarked) , what inhibition at 10 µM is on record?
Ans: > 80%

Q: What does the data say about its inhibition at 10 µM? Entry: Cc1[nH]c2ccccc2c1CCNC1CCCc2cc(/C=C/C(=O)NO)ccc21 (centres unmarked)
Ans: > 80%

Q: Returns the measured inhibition at 10 µM for the input molecule. Input: COc1ccc2c(c1)CCCC2NC(=O)CCCCCCC(=O)Nc1ccc(F)cc1N (centres unmarked)
Ans: < 50%

###

Here, each record is paired with measured inhibition at 20 µM data.
molecular target: ATX (autotaxin) (Homo sapiens); construct: purchased Cayman 10803; assay: Autotaxin Inhibition Screening Assay (choline release from LPC, LPC-CR); format: biochemical; conditions: 20 μM compound

> print(dat)
                                   compound  result
1  O=C(NO)c1ccc(COc2ccc3c(c2)CC(Cc2cc(C(F)(F)F)cc(C(F)(F)F)c2)C3=O)cc1 (stereo not shown)   > 80%
2  CCN(CC)c1ccc(C(=O)NC2CCc3cc(/C=C/C(=O)NCCCCCC(=O)NO)ccc32)cc1 (stereo not shown)   < 50%
3  Nc1cc(F)ccc1NC(=O)/C=C/c1ccc2c(c1)CCC2NCCC(=O)Nc1cc(C(F)(F)F)cc(C(F)(F)F)c1 (stereo not shown)   < 50%
4  O=C(CCCCNC(=O)c1ccc2c(c1)CC/C(=C\c1cc(C(F)(F)F)cc(C(F)(F)F)c1)C2=O)NO   > 80%
5  O=C(/C=C/c1ccc2c(c1)CCC2OCc1cc(C(F)(F)F)cc(C(F)(F)F)c1)NO (stereo not shown)   < 50%

Q: Can you look up the measured inhibition at 20 µM of CN(C)c1ccc(C(=O)NC2CCc3cc(/C=C/C(=O)NO)ccc32)cc1 (stereo not shown) for me?
Ans: < 50%

Q: // query inhibition at 20 µM value for entry O=C(/C=C/c1ccc(COc2ccc3c(c2)CC/C(=C\c2cc(C(F)(F)F)cc(C(F)(F)F)c2)C3=O)cc1)NO
Ans: 50 to 80%

###

// reported inhibition at 50 µM for each item listed
molecular target: HDAC1 (Homo sapiens, UniProt Q13547); construct: purchased Enzo Life Sciences; experiment: HDAC Inhibition Screening Assay (FLUOR DE LYS Fluorimetric Drug Discovery Kit), HDAC1; type: biochemical; conditions: 50 μM compound
Sequence (Q13547 whole entry): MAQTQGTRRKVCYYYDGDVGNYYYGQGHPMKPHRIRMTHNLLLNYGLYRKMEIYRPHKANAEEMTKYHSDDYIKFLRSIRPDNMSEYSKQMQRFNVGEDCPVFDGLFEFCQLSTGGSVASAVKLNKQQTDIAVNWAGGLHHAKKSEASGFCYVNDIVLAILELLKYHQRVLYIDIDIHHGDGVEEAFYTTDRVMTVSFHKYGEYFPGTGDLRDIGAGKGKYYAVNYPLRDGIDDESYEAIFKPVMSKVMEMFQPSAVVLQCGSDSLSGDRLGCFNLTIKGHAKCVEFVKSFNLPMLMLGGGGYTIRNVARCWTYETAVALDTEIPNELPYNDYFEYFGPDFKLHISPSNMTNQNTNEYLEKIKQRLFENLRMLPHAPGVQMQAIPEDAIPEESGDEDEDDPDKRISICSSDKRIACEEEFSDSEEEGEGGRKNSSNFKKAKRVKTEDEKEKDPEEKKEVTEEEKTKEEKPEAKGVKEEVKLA

Example results:
> print(dat)
                                   compound  result
1  O=C(CCCCCNC(=O)c1ccc2c(c1)CC/C(=C\c1cc(C(F)(F)F)cc(C(F)(F)F)c1)C2=O)NO [Compound 79]   > 80%
2  O=C(/C=C/c1ccc2c(c1)CCC2NCCc1ccc(F)cc1)NO (stereo not drawn) [Compound 53]   > 80%
3  O=C(CCCCCN(CC(=O)NC1CCc2ccccc21)CC(=O)NC1CCc2ccccc21)NO (stereo not drawn) [Compound 45]   > 80%
4  Nc1cc(F)ccc1NC(=O)/C=C/c1ccc2c(c1)CCCC2OCc1cc(C(F)(F)F)cc(C(F)(F)F)c1 (stereo not drawn) [Compound 35]   < 50%
5  Nc1cc(F)ccc1NC(=O)CCCCC(=O)N1CCN(C(=O)c2ccc3c(c2)CC/C(=C\c2cc(C(F)(F)F)cc(C(F)(F)F)c2)C3=O)CC1 [Compound 82]   < 50%

Q: Which inhibition at 50 µM value belongs to CN(C(=O)OCc1cc(C(F)(F)F)cc(C(F)(F)F)c1)C1CCc2cc(/C=C/C(=O)NO)ccc21 (stereo not drawn) [Compound 64] ?
Ans: > 80%

Q: Look at this compound and give its reported inhibition at 50 µM. Nc1cc(F)ccc1NC(=O)CCCCNC(=O)c1ccc2c(c1)CC/C(=C\c1cc(C(F)(F)F)cc(C(F)(F)F)c1)C2=O [Compound 80]
Ans: < 50%

###

biological target: ATX (autotaxin) (Homo sapiens); construct: purchased Cayman 10803; experiment: Autotaxin Inhibition Screening Assay (choline release from LPC, LPC-CR); type: biochemical; conditions: 50 μM compound
quantityKind: inhibition at 50 µM

> print(dat)
                                   molecule         quantitykind     result
1  O=C(/C=C/c1ccc(COc2ccc3c(c2)CCCC3=O)cc1)NO  inhibition at 50 µM  50 to 80%

Q: Value wanted: inhibition at 50 µM (ATX (autotaxin) (Homo sapiens)) of entry Nc1cc(F)ccc1NC(=O)c1ccc(COc2ccc3c(c2)CC(Cc2cc(C(F)(F)F)cc(C(F)(F)F)c2)C3=O)cc1 (stereo not shown)
Ans: < 50%

Q: Query inhibition at 50 µM on ATX (autotaxin) (Homo sapiens) for O=C(/C=C/c1ccc2c(c1)CCC2NCCc1ccc(F)cc1)NO (stereo not shown)
Ans: < 50%

Q: What value of inhibition at 50 µM on ATX (autotaxin) (Homo sapiens) does O=C(CCCCCCC(=O)Nc1ccc2c(c1)CCC/C2=N\O)NO have?
Ans: < 50%

Q: Find inhibition at 50 µM (ATX (autotaxin) (Homo sapiens)) for the entry O=C(/C=C/c1ccc(CNC(=O)COc2ccc3c(c2)CC/C(=C\c2cc(C(F)(F)F)cc(C(F)(F)F)c2)C3=O)cc1)NO
Ans: 50 to 80%

Q: Recorded inhibition at 50 µM for Nc1cc(F)ccc1NC(=O)CCCCNC(=O)c1ccc2c(c1)CC/C(=C\c1cc(C(F)(F)F)cc(C(F)(F)F)c1)C2=O with ATX (autotaxin) (Homo sapiens), please?
Ans: 50 to 80%

Q: Param readout= inhibition at 50 µM; system= ATX (autotaxin) (Homo sapiens); entry= O=C(CCCCCCC(=O)Nc1ccc2c(c1)CC/C(=C\c1cc(C(F)(F)F)cc(C(F)(F)F)c1)C2=O)NO ; returns value.
Ans: > 80%

###

biological target: HDAC1 (Homo sapiens); construct: purchased Enzo Life Sciences; experiment: HDAC Inhibition Screening Assay (FLUOR DE LYS Fluorimetric Drug Discovery Kit), HDAC1; type: biochemical; conditions: 2 μM compound
quantityKind: inhibition at 2 µM

> print(dat)
                                   compound     result
1  O=C(/C=C/c1ccc2c(c1)CCC2NCCc1c[nH]c2ccccc12)NO (stereo not shown)      > 80%
2  O=C(CCCCNC(=O)c1ccc2c(c1)CC/C(=C\c1cc(C(F)(F)F)cc(C(F)(F)F)c1)C2=O)NO      < 50%
3  CCN(CC)c1ccc(C(=O)NC2CCc3cc(/C=C/C(=O)NO)ccc32)cc1 (stereo not shown)      > 80%
4  Nc1cc(F)ccc1NC(=O)/C=C/c1ccc2c(c1)CCCC2NC(=O)c1cc(C(F)(F)F)cc(C(F)(F)F)c1 (stereo not shown)      < 50%
5  O=C(/C=C/c1ccc2c(c1)CCC2NC(=O)c1cc(C(F)(F)F)cc(C(F)(F)F)c1)NO (stereo not shown)  50 to 80%
6  O=C(/C=C/c1ccc2c(c1)CCC2NCCc1ccc(F)cc1)NO (stereo not shown)      > 80%
7  Nc1cc(F)ccc1NC(=O)CCCCCCC(=O)Nc1ccc2c(c1)CC/C(=C\c1cc(C(F)(F)F)cc(C(F)(F)F)c1)C2=O      < 50%
8  Nc1cc(F)ccc1NC(=O)CCCCCCC(=O)NC1CCc2cc(/C=C/C(=O)Nc3cc(Cl)cc(Cl)c3)ccc21 (stereo not shown)      < 50%

Q: Looking for the measured inhibition at 2 µM of O=C(/C=C/c1ccc2c(c1)CCCC2NC(=O)c1cc(C(F)(F)F)cc(C(F)(F)F)c1)NO (stereo not shown) , can you help?
Ans: < 50%

Q: Quick one: inhibition at 2 µM for Nc1cc(F)ccc1NC(=O)CCCCCC(=O)Nc1ccc2c(c1)CC/C(=C\c1cc(C(F)(F)F)cc(C(F)(F)F)c1)C2=O ?
Ans: < 50%

Q: What value of inhibition at 2 µM has been reported for the following compound? Nc1cc(F)ccc1NC(=O)CCCCCNC(=O)/C=C/c1ccc2c(c1)CCC2NC(=O)c1ccc(F)cc1 (stereo not shown)
Ans: < 50%

Q: What does the record list as inhibition at 2 µM for COc1ccc(C(=O)NC2CCc3cc(/C=C/C(=O)NO)ccc32)cc1 (stereo not shown) ?
Ans: > 80%

Q: Quick one: inhibition at 2 µM of O=C(/C=C/c1ccc(COc2ccc3c(c2)CC/C(=C\c2cc(C(F)(F)F)cc(C(F)(F)F)c2)C3=O)cc1)NO ?
Ans: < 50%

Q: Which inhibition at 2 µM is reported for this compound? COc1ccc(CCNC2CCc3cc(/C=C/C(=O)NO)ccc32)cc1 (stereo not shown)
Ans: > 80%

Q: Quick check: inhibition at 2 µM of CN(C(=O)OCc1cc(C(F)(F)F)cc(C(F)(F)F)c1)C1CCc2ccc(/C=C/C(=O)NO)cc21 (stereo not shown) ?
Ans: < 50%

Q: Form field: reported inhibition at 2 µM of O=C(/C=C/c1ccc2c(c1)CCC2N1CC(=O)N(c2cc(Cl)cc(Cl)c2)C1=O)NO (stereo not shown)
Ans: > 80%
